All values here come from patent US20120195831A1.

IC50 listing for selected binders.
- systemUnderTest: T1, Her3/Avi/His10 receptor (Homo sapiens (Human), UniProt P21860 20-643, limits assumed)
- T1 construct: Soluble tagged receptor of the AlphaScreen assay; The antibodies are called anti-hHer3 there; not shown: Avi tag; His10 tag (ten histidines by its name)
- T1 sequence (P21860 20-643 limits assumed): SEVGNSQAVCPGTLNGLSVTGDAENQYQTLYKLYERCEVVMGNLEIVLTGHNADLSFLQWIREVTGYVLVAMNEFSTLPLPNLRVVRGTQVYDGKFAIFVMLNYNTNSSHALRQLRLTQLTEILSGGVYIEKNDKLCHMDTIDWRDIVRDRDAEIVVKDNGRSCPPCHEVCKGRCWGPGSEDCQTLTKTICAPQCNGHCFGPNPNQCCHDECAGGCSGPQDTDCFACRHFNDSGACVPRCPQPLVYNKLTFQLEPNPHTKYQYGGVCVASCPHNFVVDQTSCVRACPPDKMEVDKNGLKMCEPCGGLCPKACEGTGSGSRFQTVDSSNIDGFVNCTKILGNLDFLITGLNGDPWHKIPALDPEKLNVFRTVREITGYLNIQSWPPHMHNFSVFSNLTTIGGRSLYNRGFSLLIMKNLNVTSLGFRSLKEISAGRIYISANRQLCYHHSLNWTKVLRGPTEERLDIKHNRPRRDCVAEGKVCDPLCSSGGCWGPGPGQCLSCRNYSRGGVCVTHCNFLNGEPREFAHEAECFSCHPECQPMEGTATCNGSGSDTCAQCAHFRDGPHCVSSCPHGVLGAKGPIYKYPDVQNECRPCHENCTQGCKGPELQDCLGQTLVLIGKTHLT
- testProtocol: AlphaScreen competition; antibody titrated against 10 nM biotinylated NRG-1 beta and 10 nM Her3/Avi/His10; n = 3
Reply numerically in nM, unit not repeated.

{"binder": "588F42 (antibody, V domains shown, Purified mouse IgG from a hybridoma; also called 588F42-HC; 588F42-LC) VH: EVQLQQSGPELVKPGASVKMSCKASGYTFTSYVMHWVKQKPGQGLEWLGYINPYNDGTKYNEKFKGKATLTSDKSSSTAYMELISLTSEDSAVYYCAREASYGNPFAYWGQGTLVTVSA VL: DIVMTQSPASLSASVGETVTITCRTSENIYSYLAWFQQKQGNSPQLLVYNTKTLAEGVPSRFSGSGSGTQFSLKINSLQPEDFGNYYCQHHYDTPWTFGGGTKLEIK", "IC50 (nM)": 4.6}
{"binder": "588F41 (antibody, V domains shown, Purified mouse IgG from a hybridoma; also called 588F41-HC; 588F41-LC) VH: EVQLQQSGPELVKPGASVKMSCKASGYTFTSYVMHWVKQKPGQGLEWLGYINPYNDGTKYNEKFKGMATLTSDKSSSTAYMELISLTSEDSAVYYCAREASYGNPFAYWGQGTLVTVSA VL: DIVMTQSPASLSASVGETVTITCRTSENIYSYLAWFQQKQGNSPQLLVYNTKTLAEGVPSRFSGSGSGTQFSLKINSLQPEDFGNYYCQHHYDTPWTFGGGTKLEIKR", "IC50 (nM)": 4.1}

[ask] Which IC50 reading was recorded for the binder PO-1G2-B6 (antibody, V domains shown, Purified mouse IgG from a hybridoma; also called PO-1G2-B6-HC; PO-1G2-B6-LC) VH: EVQLQQSGPELVKPGASVKISCKASGYSFTGYHIHWMKQSHVESLEWIGRINPYSGVTDYNQNFKDKANLTVDQSSSTAYMELHSLTSEDSAFYYCARTDYYGPWFAYWGQGTLVTVSA VL: DIQMTQSPLSLPVSLGDQASISCRSSPSLVHSNGNTYLHWYLQKPGQSPKLLIYTVSNRFSGVPDRFSGSGSGTDFTLKINRVEAEDLGVYFCSQTTHVPWTFGGGTKLEIKR ?
[reply] 72.8

[ask] And for PO-1C9-C4 (antibody, V domains shown, Purified mouse IgG from a hybridoma; also called PO-1C9-C4-HC; PO-1C9-C4-LC) VH: QVQLQQPGSELVRPGASVKLSCKASGYTFTIFWIHWVKQRPGQGLEWIGNIYPGSGGTNYDEKFKSKATLTVDTFSSTAYMQLSSLTSEDSAVYYCTRWGTGKDYWGQGTTLTVSS VL: DIVLTQSPAIMSASPGEKVTMTCRARSSVSSSYLHWYQQKPGSSPKLWIYSTSNLALGVPARFSGSGSGTSYSLTISSVEAEDAATYYCQQYDSSPFTFGTGTKLEIKR ?
[reply] 2.7

[ask] Queued: 588E10 (antibody, V domains shown, Purified mouse IgG from a hybridoma; also called 588E10-HC; 588E10-LC) VH: EVQLQQSGPKLVGPGESVKISCKGSGYTFTDYGMHWVKQSHAKRLEWIGVITIYDGHTNYNQNFKGKAALTVDKSSNTAYLELARMTSEDSAIYYCARGDYDLFWYLDVWGAGTTLTVSS VL: DVVMTQTPLSLTVSLGDQASISCRSSQNIKHSDGNTYLEWYLQKPGQSPKLLIYKVSNRFSGVPDRFSGSGSGTDFTLKISRVEAEDLGVYFCFQGSHVPLTFGAGTKLELKR
[reply] 4.9

[ask] Repeat with 588E22 (antibody, V domains shown, Purified mouse IgG from a hybridoma; also called 588E22-HC; 588E22-LC) VH: DVQLQESGPELVGPGESVKISCKGSGYTFTDYGMHWVKQSHAKRLEWIGVITIYDGHTNYNQNFKGKAALTVDKSSNTAYPELARMTSEDSAIYYCARGDYDLFWYLDVWGAGTTVTVSS VL: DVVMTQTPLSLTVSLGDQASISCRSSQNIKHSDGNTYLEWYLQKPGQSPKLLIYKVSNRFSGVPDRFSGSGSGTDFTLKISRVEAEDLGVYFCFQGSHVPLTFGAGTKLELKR
[reply] 3.6

[ask] 588E14 (antibody, V domains shown, Purified mouse IgG from a hybridoma; also called 588E14-HC; 588E14-LC) VH: EVQLQQSGPELVGPGESVKISCKGSGYAFTDYGMHWVKQSHAKRLEWIGVITIYDGHTNYNQNFKGKAALTVDKSSNTAYLELARMTSEDSAIYYCARGDYDLFWYLDVWGAGTSVTVSS VL: DIVMTQTPLSLTVSLGDQASISCRSSQNIKHSDGNTYLEWYLQKPGQSPKLLIYKVSNRFSGVPDRFSGSGSGTDFTLKISRVEAEDLGVYFCFQGSHVPLTFGAGTKLELKR ?
[reply] 2.3

[ask] Also PO-3H7-E3 (antibody, V domains shown, Purified mouse IgG from a hybridoma; also called PO-3H7-E3-HC; PO-3H7-E3-LC) VH: EVQLQQSGAELVKPGASVKISCKASGYSFTGYYMNWVKQSHGKSLEWIGNINPYYGGSNYNQKFKARATLTVDKSSSTAYMQLNSLTSEDSAVYYCARKGDLYYSMDYWGQGTSVTVSS VL: DIVMTQTPLSLPVSLGDQASISCRSSQSIVHSNGNTYLEWYLQKPGQSPKLLIYKVSNRFSGVPDRFSGSGSGTDFTLKISRVEAEDLGIYYCFQGSHVPPTFGGGTKLELKR ?
[reply] 12.7
